Data origin: the CATMoS acute toxicity set (Mansouri et al. 2021)

Form field: LD50 (one value per entry).
method.notes: rat acute oral toxicity
condition.notes: in vivo
Write the value in mg/kg as a bare number.

Guide cases for LD50, answers given:
compound	value.units	LD50
CC1(C)[C@H](/C=C2\CCSC2=O)[C@@H]1C(=O)OCc1coc(Cc2ccccc2)c1	mg/kg	650
N[C@@H](Cc1ccc(N(CCCl)CCCl)cc1)C(=O)O	mg/kg	11.2

The compound identified as `N#Cc1ccccc1` registered its LD50 at 700

The compound identified as `Clc1cc2c(c(Cl)c1Cl)Oc1c(cc(Cl)c(Cl)c1Cl)O2` registered its LD50 at 0.8

The compound identified as `O=C(Cl)c1ccccc1` registered its LD50 at 2460

The compound identified as `O=C(O)CBr` registered its LD50 at 50

The compound identified as `CC(C)=O` registered its LD50 at 5800

The compound identified as `N#CC(Br)(Br)C(N)=O` registered its LD50 at 178

The compound identified as CCCCOP(C)(=O)CCC(C#N)OC(C)=O (stereo not given) registered its LD50 at 253

The compound identified as `CCCCOCCOCCOCc1cc2c(cc1CCC)OCO2` registered its LD50 at 4570

The compound identified as `CCN(CC)CCNC(=O)c1ccc(N)cc1` registered its LD50 at 1510

The compound identified as CC(Cc1ccc(C(C)(C)C)cc1)CN1CC(C)OC(C)C1 (stereo not given) registered its LD50 at 1670

The compound identified as `CC(=O)OC(C)C` registered its LD50 at 3000

The compound identified as `ClC(Cl)C(Cl)Cl` registered its LD50 at 200

The compound identified as `C=CCCC` registered its LD50 at 4600

###

method.notes: GHS categories as the set defines them, by LD50: 1 up to 5, 2 up to 50, 3 up to 300, 4 up to 2000, 5 above 2000 mg/kg
condition.notes: rat; in vivo; po
Form field: GHS category (one value per entry).

Guide cases for GHS category, answers given:
molecule	GHS category
COc1ccccc1C=CC=O	5
COc1nc(C)nc(NC(=O)NS(=O)(=O)c2ccccc2OCCCl)n1	5
CCC(C)CCC(C)(O)CC (stereo not given)	5
CCC(CC)CC1(C(=O)O)CCCCC1	4
N#CCN(CC#N)CC#N	3
CC=CC(=O)OCCCCCC	5

The molecule identified as `Cc1ccc(Nc2nc(Nc3ccc(C)cc3)c(N=Nc3ccccc3C(F)(F)F)c(C)c2C#N)cc1` registered its GHS category at 5

The molecule identified as `CO/N=C(\C(=O)N[C@@H]1C(=O)N2C(C(=O)O)=CCS[C@H]12)c1csc(N)n1` registered its GHS category at 5

The molecule identified as `CCCC(=O)c1ccc2c(c1)oc(=O)n2C` registered its GHS category at 5

The molecule identified as `O=[N+]([O-])c1ccc(C=NOCc2cccc([N+](=O)[O-])c2)cc1` registered its GHS category at 4

The molecule identified as `Cc1nc(N2CCOCC2)sc1C(=O)Nc1ccccc1` registered its GHS category at 4

The molecule identified as `O=C(O)CN(CCCN(C(=O)O)C(=O)O)C(=O)O` registered its GHS category at 5

The molecule identified as `C[C@H]1CCCC(=O)CCCC=Cc2cc(O)cc(O)c2C(=O)O1` registered its GHS category at 5

The molecule identified as CCCN(CC)CC1COC2(CCC(C(C)(C)C)CC2)O1 (stereo not given) registered its GHS category at 4

The molecule identified as `FC(F)(F)c1cccc(-n2nc(OCCN3CCCCCC3)c3cccnc32)c1` registered its GHS category at 4

The molecule identified as `O=c1c2cc(Cl)ccc2[nH]c2cc3c(=O)c4cc(Cl)ccc4[nH]c3cc12` registered its GHS category at 5

The molecule identified as `CC(C)Oc1ccc2c(=O)c(-c3ccccc3)coc2c1` registered its GHS category at 5

The molecule identified as `NC(=O)O` registered its GHS category at 4

The molecule identified as COC(=O)C(C)O (stereo not given) registered its GHS category at 5

The molecule identified as `Cc1ncoc1C(N)=O` registered its GHS category at 5

The molecule identified as `Cc1nc2cc(Cl)ccc2o1` registered its GHS category at 4
